Kindly supply the reported Percent Effect values for the records listed here.
target_system: Sialic acid-binding Ig-like lectin 9 (Homo sapiens) (UniProt Q9Y336)
Sequence (Q9Y336 whole entry): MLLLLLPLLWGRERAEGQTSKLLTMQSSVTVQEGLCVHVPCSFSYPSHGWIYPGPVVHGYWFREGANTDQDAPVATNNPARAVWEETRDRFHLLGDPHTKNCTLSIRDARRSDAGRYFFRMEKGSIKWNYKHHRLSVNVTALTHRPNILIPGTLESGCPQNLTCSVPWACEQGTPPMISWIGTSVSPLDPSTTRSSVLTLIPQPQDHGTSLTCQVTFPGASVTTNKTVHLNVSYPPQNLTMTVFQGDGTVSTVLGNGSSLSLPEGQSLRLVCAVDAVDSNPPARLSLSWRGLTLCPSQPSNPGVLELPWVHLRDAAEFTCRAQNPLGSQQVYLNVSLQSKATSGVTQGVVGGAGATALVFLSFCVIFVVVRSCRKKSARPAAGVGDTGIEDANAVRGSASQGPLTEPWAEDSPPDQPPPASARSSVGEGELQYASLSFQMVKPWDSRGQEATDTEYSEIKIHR
procedure_text: Hs-Siglec9 ALPHAscreen SOP 20170721
Set-up: scale not given: direction of the effect not stated beside the values
run_parameters: 10 µM
# number only, unit % dropped from output

Query block: I would be grateful if you could share the reported Percent Effect for CC(C)c1noc(CCCC(=O)N2CCC(Cc3cccnc3)CC2)n1 .
Result block: 8.41

Query block: I would be grateful if you could share the reported Percent Effect for Cc1nn(C)c(C)c1C1CCCN1C(=O)CCc1cscn1 (stereo unspecified) .
Result block: 0.0636

Query block: I would be grateful if you could share the reported Percent Effect for COc1ccc(CC(=O)N2CCCC(n3cc(C)cn3)C2)cc1F (stereo unspecified) .
Result block: 3.32

Query block: I would be grateful if you could share the reported Percent Effect for CCC1=N[C@@]2(CC[C@@H]3CN(S(=O)(=O)CC)C[C@@H]32)C(=O)N1CC(C)C .
Result block: 11.1

Query block: I would be grateful if you could share the reported Percent Effect for Cc1cc(C)n(CCCNC(=O)[C@@H](C)NC(=O)OC(C)(C)C)n1 .
Result block: 0.0654

Query block: I would be grateful if you could share the reported Percent Effect for O=C(c1ccn(-c2cccc(F)c2)n1)N1CCCC(n2cccn2)C1 (stereo unspecified) .
Result block: 0.275

Query block: I would be grateful if you could share the reported Percent Effect for CCOCC1CN(C)Cc2cnn(CC3CCCC3)c21 (stereo unspecified) .
Result block: 7.92

Query block: I would be grateful if you could share the reported Percent Effect for CN(C)c1ncc(CN2CCOC(C(=O)Nc3ccccc3)C2)cn1 (stereo unspecified) .
Result block: -8.34

Query block: I would be grateful if you could share the reported Percent Effect for COc1ccc(CNCc2c(C)nn(C)c2N2CCOCC2)cc1 .
Result block: 0.605

Query block: I would be grateful if you could share the reported Percent Effect for CN(Cc1cccnc1)CC1CCCN1c1cccnn1 (stereo unspecified) .
Result block: -14.9

Query block: I would be grateful if you could share the reported Percent Effect for CC(C)n1[nH]c(=O)c2c1NC(=O)CC2c1cccc(OC(F)F)c1 (stereo unspecified) .
Result block: -4.26

Query block: I would be grateful if you could share the reported Percent Effect for CC(C)Cc1nc(OCC(=O)O)c(C#N)c2c1CCC2 .
Result block: -3.77

Query block: I would be grateful if you could share the reported Percent Effect for CCc1cnc(N2CCC3(CC2)CN(c2cccnc2)C(=O)CO3)nc1 .
Result block: -2.45

Query block: I would be grateful if you could share the reported Percent Effect for Cc1ncccc1NC(=O)C1=NOC2(CCN(Cc3nccs3)C2)C1 (stereo unspecified) .
Result block: 2.46

Query block: I would be grateful if you could share the reported Percent Effect for Cc1cc(-c2cnc(NC3CCCC3)nc2-c2ccoc2C)on1 .
Result block: 4.01

Query block: I would be grateful if you could share the reported Percent Effect for COc1ccccc1C(O)CNC(=O)NCc1cccnc1OC (stereo unspecified) .
Result block: -9.15

Query block: I would be grateful if you could share the reported Percent Effect for CC1CCN(C(=O)c2cccc3ncccc23)CC1 .
Result block: 1.04

Query block: I would be grateful if you could share the reported Percent Effect for Cc1cc(C)nc(Nc2cc(C3CCCN(C)C3)nc(C)n2)n1 (stereo unspecified) .
Result block: 6.27

Query block: I would be grateful if you could share the reported Percent Effect for CCC(NC(=O)c1ccco1)c1ccccc1OCC(=O)N1CCCC1 (stereo unspecified) .
Result block: -7.21

Query block: I would be grateful if you could share the reported Percent Effect for Cn1c(C(F)(F)F)nn(CCNC(=O)NCc2ccccc2)c1=O .
Result block: 26.1

Query block: I would be grateful if you could share the reported Percent Effect for O=C([C@H]1CCCO1)N1CC[C@H](O)[C@@H]1Cc1ccncc1 .
Result block: 3.47

* * *

target_system: Proteasome subunit beta (Trypanosoma cruzi) (UniProt O96673)
Sequence (whole entry): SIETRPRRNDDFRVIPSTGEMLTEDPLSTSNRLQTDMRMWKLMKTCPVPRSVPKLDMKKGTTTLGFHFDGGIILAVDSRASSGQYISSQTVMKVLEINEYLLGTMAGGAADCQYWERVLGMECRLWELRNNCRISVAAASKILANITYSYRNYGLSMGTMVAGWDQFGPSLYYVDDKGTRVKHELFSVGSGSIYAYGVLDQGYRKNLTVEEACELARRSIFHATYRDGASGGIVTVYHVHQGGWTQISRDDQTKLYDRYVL
procedure_text: Trypanosoma cruzi proteasome chymotrypsin-like activity (TcProtChymo) assay. Note: in the data most compounds retested in dose-response had high values.
Format: functional
Set-up: scale not given: direction of the effect not stated beside the values
run_parameters: 9.37 µM
Values of Percent Effect strictly less than 10% map to 1, and values of at least 10% map to -1.

Query block: Is Percent Effect of Cc1nc(C2(O)CCCNCC2)sc1CCOc1ccc(Cl)cc1 (centres undefined) strictly below 10%?
Result block: 1

Query block: Is Percent Effect of CC(C)(C)C(=O)Cn1nc(-c2ccccc2F)ccc1=O strictly below 10%?
Result block: -1

Query block: Is Percent Effect of Cc1ccc(N2CCC3(CCN(C(N)=O)CC3)CC2)nn1 strictly below 10%?
Result block: -1

Query block: Is Percent Effect of O=C1CCc2cc(-c3csc(CCN4CCCC4=O)n3)ccc2N1 strictly below 10%?
Result block: 1

Query block: Is Percent Effect of CCn1cc(CN2CCCn3nc(CNC(=O)C4CCC4)cc3C2)cn1 strictly below 10%?
Result block: -1

Query block: Is Percent Effect of Cc1c(F)cc(C(=O)O)cc1S(=O)(=O)Nc1cccc(C(F)F)c1 strictly below 10%?
Result block: 1

Query block: Is Percent Effect of O=C(NCCNc1ncccn1)N1CCCC(C(F)(F)F)C1 (centres undefined) strictly below 10%?
Result block: 1

Query block: Is Percent Effect of O=C(NC1CC1)[C@H]1CC[C@@H]2[C@@H](CCN2c2ncc(F)cn2)O1 strictly below 10%?
Result block: 1

Query block: Is Percent Effect of CC(=O)c1sc(Nc2ccc(Cl)cn2)nc1C strictly below 10%?
Result block: -1

Query block: Is Percent Effect of O=S(=O)(c1ccccc1)N1CCCCC1c1cc[nH]n1 (centres undefined) strictly below 10%?
Result block: -1

Query block: Is Percent Effect of CCc1[nH]ncc1C(=O)N1CCCN(Cc2cnn(C(C)C)c2)CC1 strictly below 10%?
Result block: -1

Query block: Is Percent Effect of Cn1nc(CNC(=O)C2COc3ccccc3O2)cc1C1CC1 (centres undefined) strictly below 10%?
Result block: 1

Query block: Is Percent Effect of Nc1nc(CCC(=O)N2CCOC(CC3CCCCC3)C2)cs1 (centres undefined) strictly below 10%?
Result block: 1

Query block: Is Percent Effect of CCc1nc(C2CCCN2C(=O)c2nccnc2N)no1 (centres undefined) strictly below 10%?
Result block: 1

Query block: Is Percent Effect of CC(O)CN(CC(=O)NC(=O)NC1CC1)c1ccccc1 (centres undefined) strictly below 10%?
Result block: 1

Query block: Is Percent Effect of CN(C)CCN1CCC2(CC1)CN(c1cccnc1)C(=O)CO2 strictly below 10%?
Result block: -1

Query block: Is Percent Effect of COc1ccc(CN2CCn3cc(Cn4cccn4)nc3C2)cc1 strictly below 10%?
Result block: 1

Query block: Is Percent Effect of Cc1cc(CNC(=O)N2CCCN(Cc3ccccc3)CC2)no1 strictly below 10%?
Result block: -1

Query block: Is Percent Effect of Cc1cc(NC(=O)NCC(C)O)n(C)n1 (centres undefined) strictly below 10%?
Result block: -1

Query block: Is Percent Effect of CCOCC1CN(C)Cc2cnn(CC3CCCC3)c21 (centres undefined) strictly below 10%?
Result block: 1

Query block: Is Percent Effect of c1cnc(-c2nc(CN3CCC(c4ccn[nH]4)CC3)cs2)nc1 strictly below 10%?
Result block: 1

Query block: Is Percent Effect of CN(C)S(=O)(=O)N1CCN(c2ccnc(N3CCCC3)n2)CC1 strictly below 10%?
Result block: 1

Query block: Is Percent Effect of O=C(NCCNC(=O)c1scnc1Cl)c1ccccc1 strictly below 10%?
Result block: -1

Query block: Is Percent Effect of Cc1ccc(C(=O)N2CCC3(CC2)CCN(CCN(C)C)C3=O)cn1 strictly below 10%?
Result block: 1

Query block: Is Percent Effect of CCC(OC)C(=O)N1CCc2nc(NC)nc(C(=O)N3CCCC3)c2C1 (centres undefined) strictly below 10%?
Result block: -1

Query block: Is Percent Effect of Cc1ncccc1OC1(C(=O)NCCNc2ccccc2)CCNCC1 strictly below 10%?
Result block: 1

Query block: Is Percent Effect of Cc1nc(C)n(CC2CCCN(Cc3ccc(C(N)=O)cc3)C2)n1 (centres undefined) strictly below 10%?
Result block: 1

Query block: Is Percent Effect of Cc1cc(CN(C)C(=O)NC2CCN(Cc3ccccc3)C2)no1 (centres undefined) strictly below 10%?
Result block: -1

Query block: Is Percent Effect of CCc1nc(CN2CCN(C(=O)CCc3ccccc3)CC2)cs1 strictly below 10%?
Result block: -1
